Please provide measured cell viability for the entries that follow.
Tested on: P12-Ichikawa
EXPERIMENTAL DETAILS: cell viability relative to DMSO control; higher = less cytotoxic
TEST PARAMETERS: HPLM + 10% dialyzed FBS; 48 h; 0.00234 µM
One number for each entry, in %.

molecule=O=C(O)CCCc1ccc(N(CCCl)CCCl)cc1 unit_abbreviation=% measured=116
molecule=Cc1cc(-c2ccc(CC(=O)Nc3ccc(-c4cccnc4)cc3)cc2)ccn1 unit_abbreviation=% measured=113
molecule="CCCC[N+]1(C)[C@@H]2CC(OC(=O)[C@H](CO)c3ccccc3)C[C@H]1[C@@H]1O[C@@H]12 (stereo partly drawn)" unit_abbreviation=% measured=121
molecule="CCCCCCCN(CC)CCCC(O)c1ccc(NS(C)(=O)=O)cc1.CCCCCCCN(CC)CCCC(O)c1ccc(NS(C)(=O)=O)cc1.O=C(O)/C=C/C(=O)O (stereo not drawn)" unit_abbreviation=% measured=108
molecule="COc1ccccc1N1CCN(CC(O)COc2cccc3ccccc23)CC1 (stereo not drawn)" unit_abbreviation=% measured=123

Fill in cell viability for each of the 5 molecules listed.
1. NC(=O)c1ncn([C@@H]2O[C@H](CO)[C@@H](O)[C@H]2O)c1N
2. CN1C(=O)C(=C/2N(C(=O)N(C3CC3)C(=O)C2=C1/NC4=CC=C(I)C=C4F)C5=CC=CC(=C5)NC(C)=O)\C
3. NC/1=N/C(=O)C2=C([NH]C=C2CCC3=CC=C(C=C3)C(=O)N[C@@H](CCC(O)=O)C(O)=O)N1
4. CN(C)c1ccccc1CN1CCCN(Cc2ccccc2N(C)C)C1c1ccncc1
5. CCN(CCO)CCCC(C)Nc1ccnc2cc(Cl)ccc12 (stereo not drawn)

**Result**
[124, 130, 109, 94.7, 114]

Fill in cell viability for each of the 2 molecules listed.
1. N[C@@H](Cc1cc(I)c(Oc2cc(I)c(O)c(I)c2)c(I)c1)C(=O)O
2. NC(=O)c1c(OCc2c(F)cc(Br)cc2F)nsc1NC(=O)NCCCCN1CCCC1

**Result**
1. 116
2. 112

---

Please provide measured cell viability for the entries that follow.
Tested on: NOMO1
EXPERIMENTAL DETAILS: cell viability relative to DMSO control; higher = less cytotoxic
TEST PARAMETERS: RPMI 5 mM glucose + 10% dialyzed FBS; 48 h; 0.00702 µM
One number for each entry, in %.

compound=O=C(O)CCCc1ccc(N(CCCl)CCCl)cc1 unit_abbreviation=% measured=131

Fill in cell viability for each of the 3 compounds listed.
1. CN(C)[C@H]\1[C@@H]2[C@@H](O)[C@H]3\C(=C(O)/[C@]2(O)C(=O)\C(=C1O)C(N)=O)C(=O)C4=C(C=CC=C4O)[C@@]3(C)O
2. COc1ccc(CC2SC(=O)NC2=O)cc1C(=O)NCc1ccc(C(F)(F)F)cc1 (centres undefined)
3. Cc1n[nH]c2ccc(-c3cncc(OC[C@@H](N)Cc4c[nH]c5ccccc45)c3)cc12

**Result**
1. 117
2. 86.9
3. 93.1

Fill in cell viability for each of the 3 compounds listed.
1. CC(C)C[C@@H](C(=O)N[C@H](C(=O)OC1CCCC1)c1ccccc1)[C@H](O)C(=O)NO
2. CC(C)(OCc1nn(Cc2ccccc2)c2ccccc12)C(=O)O
3. NC/1=N/C(=O)C2=C([NH]C=C2CCC3=CC=C(C=C3)C(=O)N[C@@H](CCC(O)=O)C(O)=O)N1

**Result**
1. 122
2. 93.3
3. 96

---

Tested on: SEM cells
EXPERIMENTAL DETAILS: cell viability relative to DMSO control; higher = less cytotoxic
TEST PARAMETERS: HPLM + 10% dialyzed FBS; 48 h; 0.000781 µM
Param label: returns criterion met when cell viability < 80%, returns criterion not met otherwise, including exact equality.

Some solved cases for reference:
compound=CC[C@@H](C)[C@H](NC(=O)[C@H](CC1CCCCC1)NC(=O)c1ccno1)C(=O)N1CCC2(CCc3ccccc32)CC1 subject_of_test="SEM cells" class_name="criterion met"
compound=CCN(CC)CCNC(=O)c1ccc2nc(-c3ccccc3)c(-c3ccc(CN4CCC(n5c(=O)[nH]c6ccccc65)CC4)cc3)nc2c1 subject_of_test="SEM cells" class_name="criterion not met"
compound=CCN(CC)Cc1ccc2cc(COC(=O)Nc3ccc(C(=O)NO)cc3)ccc2c1 subject_of_test="SEM cells" class_name="criterion not met"
compound="COc1ccc(CC2SC(=O)NC2=O)cc1C(=O)NCc1ccc(C(F)(F)F)cc1 (stereo not drawn)" subject_of_test="SEM cells" class_name="criterion met"
compound=CC(=O)O/N=C1/C(=C2\C(=O)Nc3cc(Br)ccc32)Nc2ccccc21 subject_of_test="SEM cells" class_name="criterion not met"
compound="COc1cc([C@@H]2c3cc4c(cc3[C@@H](O)C3COC(=O)C32)OCO4)cc(OC)c1O (stereo partly drawn)" subject_of_test="SEM cells" class_name="criterion met"
compound=CO[C@H]1C[C@H]2OC[C@@]2(OC(C)=O)[C@H]3[C@H](OC(=O)C4=CC=CC=C4)[C@]5(O)C[C@H](OC(=O)[C@H](O)[C@@H](NC(=O)OC(C)(C)C)C6=CC=CC=C6)/C(=C(/[C@@H](OC)C(=O)[C@]13C)C5(C)C)C subject_of_test="SEM cells" class_name="criterion met"

# evaluate next
**Query** Below 80% on cell viability? Entry "C=CC[N+]1([C@H]2C[C@H]3[C@@H]4CC[C@H]5C[C@H](O)[C@@H](N6CCOCC6)C[C@]5(C)[C@H]4CC[C@]3(C)[C@H]2OC(C)=O)CCCC1"
**Result** criterion not met

---

Please provide measured cell viability for the entries that follow.
Test system: SEM cells
EXPERIMENTAL DETAILS: cell viability relative to DMSO control; higher = less cytotoxic
TEST PARAMETERS: RPMI 5 mM glucose + 10% FBS; 48 h; 46.1 µM

Take a look at these entries with their results.
given_smiles=Cc1ccc(Nc2nccc(N(C)c3ccc4c(C)n(C)nc4c3)n2)cc1[S+](N)(=O)[O-] endpoint_name="cell viability" measured=7.79%
given_smiles=OCCN1CCN(CCCN2c3ccccc3Sc3ccc(C(F)(F)F)cc32)CC1 endpoint_name="cell viability" measured=34.1%
given_smiles=CC(C)C1=N[N](C\2=C1C(=O)N\C(=N2)CC3=CC=C(OCCO)C=C3)C4=C(Cl)C=CC=C4Cl endpoint_name="cell viability" measured=2.06%
given_smiles=CCC[S+](=O)([O-])Nc1ccc(F)c(C(=O)c2c[nH]c3ncc(-c4ccc(Cl)cc4)cc23)c1F endpoint_name="cell viability" measured=107%
given_smiles=CC(=O)[C@H]1CC[C@H]2[C@@H]3C/C=C4/C[C@@H](O)CC[C@]4(C)[C@H]3CC[C@]12C endpoint_name="cell viability" measured=119%
given_smiles=O=C(Nc1ccncc1)C(=O)c1cn(Cc2ccc(Cl)cc2)c2ccccc12 endpoint_name="cell viability" measured=28%
given_smiles=O=C1N\N=C(\C[C@@H]2CCN(C2)C(=O)C3CC3)N1C4=CC=C(C=C4)C5=CC=C6OC=CC6=C5 endpoint_name="cell viability" measured=51.9%

**Query** Which cell viability is reported for this compound? "O=C(O)c1nn(Cc2ccc(Cl)cc2Cl)c2ccccc12"
**Result** 81%

---

Please provide measured AUC of viability dose-response curve for the entries that follow.
Test system: P12-Ichikawa
EXPERIMENTAL DETAILS: AUC of viability dose-response curve (% viability x log10 dose units); higher = less sensitive
TEST PARAMETERS: RPMI 5 mM glucose + 10% FBS; 48 h
One number for each entry.

compound=CC(C)C[C@H](NC(=O)c1cc2ccccc2s1)C(=O)N1CCN(C(=O)[C@H](CO)N[S+](=O)([O-])c2ccc(Cl)cc2Cl)CC1 measured=464
compound=Cc1n[nH]c(C)c1Cc1sc2c(c1C(=O)N1C[C@H](O)CO1)c(=O)n(C)c(=O)n2CC(C)C measured=410
compound=CCC[S+](=O)([O-])Nc1ccc(F)c(C(=O)c2c[nH]c3ncc(-c4ccc(Cl)cc4)cc23)c1F measured=452

Fill in AUC of viability dose-response curve for each of the 8 compounds listed.
1. CC(C)N(CCCNC(=O)Nc1ccc(C(C)(C)C)cc1)C[C@H]1O[C@@H](n2cc(Br)c3c(N)ncnc32)[C@H](O)[C@@H]1O
2. Cc1cccc(Nc2nc(N[C@@H]3CCCC[C@@H]3N)ncc2C(N)=O)c1
3. CC(C(=O)O)c1ccc(-c2ccccc2)c(F)c1 (stereo not drawn)
4. c1cc(N[C@@H]2CCNC2)nc(-c2cnc3ccc(-c4cn[nH]c4)cn23)c1
5. CNC(=O)c1cc(COc2nnc(Nc3ccc(Cl)cc3)c3ccoc23)ccn1
6. NC(=O)c1c(OCc2c(F)cc(Br)cc2F)nsc1NC(=O)NCCCCN1CCCC1
7. O=C(Nc1ccncc1)C(=O)c1cn(Cc2ccc(Cl)cc2)c2ccccc12
8. O=C1CCc2cc(OCCCCc3nnnn3C3CCCCC3)ccc2N1

**Result**
1: 405; 2: 380; 3: 432; 4: 457; 5: 458; 6: 445; 7: 275; 8: 436
